Reported Tm values are given for each entry in this list.
B1: Lysozyme C, P61626 (parent)
chain: MKALIVLGLVLLSVTVQGKVFERCELARTLKRLGMDGYRGISLANWMCLAKWESGYNTRATNYNAGDRSTDYGIFQINSRYWCNDGKTPGAVNACHLSCSALLQDNIADAVACAKRVVRDPQGIRAWVAWRNRCQNRDVRQYVQGCGV

Variants of: B1
Settings: Homo sapiens; pH 3.1; Thermal; DSC; glycine 0.05 M; reversible: yes; structure 1LZ1; whole UniProt chain shown
Answer in °C, number only, no unit symbol.

Below, 5 variants whose answers are already recorded.
I74V : 50.5
I107V : 53.8
I124V : 51.3
V20A : 48.3
I77V : 52

Shifting focus to the variant that follows.
Recorded Tm of V117A , please.
52.6
